measurementProtocol: Clearance in Sprague-Dawley rat at 1 mg/kg,iv measured upto 24 hrs by LC-MS/MS analysis
Format: ADME, organism-based
experimentalSetup: in vivo
measuredProperty: clearance (mL/min/kg)
Give a bare numeral; the unit mL/min/kg is implied.

Given the compound `C#Cc1c(F)ccc2cc(O)cc(-c3ncc4c(N5C[C@H]6CC[C@@H](C5)N6)nc(OC[C@@]56CCCN5C[C@H](F)C6)nc4c3F)c12` , write its reported clearance.
91.7

Given the compound [2H]C([2H])(Oc1nc(NCC2(N(C)C)CCC2)c2cnc(-c3cc(N)cc4ccc(F)c(C#C)c34)c(F)c2n1)C12CCCN1CC(=C(F)F)C2 (stereo not given) , write its reported clearance.
81.1

Given the compound [2H]C([2H])(Oc1nc(NCC2(N(C)C)CCC2)c2cnc(-c3cc(O)cc4ccc(F)c(C#C)c34)c(F)c2n1)C12CCCN1CC(=C(F)F)C2 (stereo not given) , write its reported clearance.
33.4

Given the compound [2H]C([2H])(Oc1nc(N2C[C@H]3CC[C@@H](C2)N3)c2cnc(-c3cc(N)cc4ccc(F)c(C#C)c34)c(F)c2n1)C12CCCN1CC(=C(F)F)C2 (stereo not given in full) , write its reported clearance.
168

Given the compound [2H]C([2H])(Oc1nc(N2C[C@H]3CC[C@@H](C2)N3)c2cnc(-c3cc(O)cc4ccc(F)c(C#C)c34)c(F)c2n1)C12CCCN1CC(=C(F)F)C2 (stereo not given in full) , write its reported clearance.
490

---

measurementProtocol: Metabolic stability in dog liver microsomes assessed as intrinsic clearance at 150 uM measured after 60 mins in presence of NADPH by LC-MS/MS analysis
Type: ADME, Canis lupus familiaris, Microsome
experimentalSetup: read-out: CLH
measuredProperty: microsomal CLint at 150 µM (µL/min/mg)
Give a bare numeral; the unit µL/min/mg is implied.

Given the compound `C#Cc1c(F)ccc2cc(O)cc(-c3ncc4c(N5C[C@H]6CC[C@@H](C5)N6)nc(OC[C@@]56CCCN5C[C@H](F)C6)nc4c3F)c12` , write its reported microsomal CLint at 150 µM.
16.8

Given the compound [2H]C([2H])(Oc1nc(N2C[C@H]3CC[C@@H](C2)N3)c2cnc(-c3cc(N)cc4ccc(F)c(C#C)c34)c(F)c2n1)C12CCCN1CC(=C(F)F)C2 (stereo partly drawn) , write its reported microsomal CLint at 150 µM.
16.2

Given the compound [2H]C([2H])(Oc1nc(N2C[C@H]3CC[C@@H](C2)N3)c2cnc(-c3cc(O)cc4ccc(F)c(C#C)c34)c(F)c2n1)C12CCCN1CC(=C(F)F)C2 (stereo partly drawn) , write its reported microsomal CLint at 150 µM.
51.8

---

Tested on: NCI-H1299
measurementProtocol: Antiproliferative activity against human NCI-H1299 cells harboring KRAS wild type assessed as inhibition of cell growth incubated for 5 days by crystal violet staining analysis
Assay type: functional, cell-based
experimentalSetup: NCI-H1299, 120 h
measuredProperty: IC50

Given the molecule C#Cc1c(F)ccc2cc(O)cc(-c3ncc4c(N5C[C@H]6CC[C@@H](C5)N6)nc(OC[C@]56CCCN5[C@@H](Cn5cc(COCCOC)nn5)CC6)nc4c3F)c12 (racemic) , write its reported IC50.
> 5 µM

Given the molecule C#Cc1c(F)ccc2cc(O)cc(-c3ncc4c(N5C[C@H]6CC[C@@H](C5)N6)nc(OC[C@]56CCCN5[C@@H](COC(=O)NCC57C[C@H]8C[C@@H](C5)C[C@@H](C7)C8)CC6)nc4c3F)c12 (mixture of isomers) , write its reported IC50.
> 5 µM

Given the molecule `C#Cc1c(F)ccc2cc(O)cc(-c3ncc4c(N5C[C@H]6CC[C@@H](C5)N6)nc(N5C[C@@H]6C[C@H](C5)c5cccc(=O)n5C6)nc4c3F)c12` , write its reported IC50.
> 5 µM

Given the molecule [2H]C([2H])(Oc1nc(NCC2(N(C)C)CCC2)c2cnc(-c3cc(N)cc4ccc(F)c(C#C)c34)c(F)c2n1)C12CCCN1CC(=C(F)F)C2 (configuration not stated) , write its reported IC50.
> 5 µM

Given the molecule `C#Cc1c(F)ccc2cc(O)cc(-c3ncc4c(N5C[C@H]6CC[C@@H](C5)N6)nc(OC[C@H]5CC6CCN5C[C@@H]6C=C)nc4c3F)c12` , write its reported IC50.
> 5 µM

Given the molecule [2H]C([2H])(Oc1nc(NCC23CCCN2CCC3)c2cnc(-c3cc(O)cc4ccc(F)c(C#C)c34)c(F)c2n1)C12CCCN1CC(=C(F)F)C2 (configuration not stated) , write its reported IC50.
> 5 µM

Given the molecule [2H]C([2H])(Oc1nc(N2C[C@H]3CC[C@@H](C2)N3)c2cnc(-c3cccc4c(F)cc(F)c(C#C)c34)c(F)c2n1)C12CCCN1CC(=C(F)F)C2 (some centres not stated) , write its reported IC50.
> 5 µM

Given the molecule [2H]C([2H])(Oc1nc(N2C[C@H]3CC[C@@H](C2)N3)c2cnc(-c3cc(O)cc4ccc(F)c(C#C)c34)c(F)c2n1)C12CC(=C)CN1CC1(CC1)C2 (some centres not stated) , write its reported IC50.
3.02 µM

Given the molecule [2H]C(Oc1nc(N2C[C@H]3CC[C@@H](C2)N3)c2cnc(-c3cc(O)cc4ccc(F)c(C#C)c34)c(F)c2n1)C12CCCN1CC(=C)C2 (some centres not stated) , write its reported IC50.
> 5 µM

Given the molecule [2H]C([2H])(Oc1nc(N2C[C@H]3CC[C@@H](C2)N3)c2cnc(-c3cc(O)cc4ccc(F)c(C#C)c34)c(F)c2n1)C12CCCN1CC(=C)C2 (some centres not stated) , write its reported IC50.
> 5 µM

Given the molecule [2H]C([2H])(Oc1nc(N2C[C@H]3CC[C@@H](C2)N3)c2cnc(-c3cc(O)cc4ccc(F)c(C#C)c34)c(F)c2n1)C12CCCN1CC(=C(F)F)C2 (some centres not stated) , write its reported IC50.
1.94 µM

Given the molecule `[2H]C([2H])(Oc1nc(N2C[C@H]3CC[C@@H](C2)N3)c2cnc(-c3cc(O)cc4ccc(F)c(C#C)c34)c(F)c2n1)C12CC(=C)CN1CC(=C)C2` , write its reported IC50.
2.01 µM

Given the molecule [2H]C([2H])(Oc1nc(N2C[C@H]3CC[C@@H](C2)N3)c2cnc(-c3cccc4cc(F)c(F)c(C#C)c34)c(F)c2n1)C12CCCN1CC(=C(F)F)C2 (some centres not stated) , write its reported IC50.
> 5 µM

Given the molecule C#Cc1c(F)ccc2cc(O)cc(-c3ncc4c(N5C[C@H]6CC[C@@H](C5)N6)nc(OC[C@]56CCCN5[C@@H](Cn5cc(C(C)(C)O)nn5)CC6)nc4c3F)c12 (racemic) , write its reported IC50.
> 5 µM

Given the molecule [2H]C([2H])(Oc1nc(N2C[C@H]3CC[C@@H](C2)N3)c2cnc(-c3cc(N)cc4cccc(C#C)c34)c(F)c2n1)C12CCCN1CC(=C(F)F)C2 (some centres not stated) , write its reported IC50.
2.5 µM

Given the molecule [2H]C([2H])(Oc1nc(N2C[C@H]3CC[C@@H](C2)N3)c2cnc(-c3cc(O)cc4ccc(F)c(C#C)c34)c(F)c2n1)C12CC(=C)CN1CC(=C(F)F)C2 (some centres not stated) , write its reported IC50.
1.93 µM

Given the molecule C#CCN(C)C(=O)OC[C@H]1CC[C@@]2(COc3nc(N4C[C@H]5CC[C@@H](C4)N5)c4cnc(-c5cc(O)cc6ccc(F)c(C#C)c56)c(F)c4n3)CCCN12 (racemic) , write its reported IC50.
> 5 µM

Given the molecule `C#Cc1c(F)ccc2cc(O)cc(-c3ncc4c(N5C[C@H]6CC[C@@H](C5)N6)nc(OC[C@@]56CCCN5C[C@H](F)C6)nc4c3F)c12` , write its reported IC50.
> 5 µM

Given the molecule C#Cc1c(F)ccc2cc(O)cc(-c3ncc4c(N5C[C@H]6CC[C@@H](C5)N6)nc(OC[C@]56CCCN5[C@@H](Cn5cc(CCC#N)nn5)CC6)nc4c3F)c12 (racemic) , write its reported IC50.
> 5 µM

Given the molecule C#Cc1c(F)ccc2cc(O)cc(-c3ncc4c(N5C[C@H]6CC[C@@H](C5)N6)nc(OCC56CCCN5CC(=C)C6)nc4c3F)c12 (some centres not stated) , write its reported IC50.
> 5 µM

Given the molecule [2H]C([2H])(Oc1nc(N[C@H]2CCCC[C@@H]2N(C)C)c2cnc(-c3cc(O)cc4ccc(F)c(C#C)c34)c(F)c2n1)C12CCCN1CC(=C(F)F)C2 (some centres not stated) , write its reported IC50.
> 5 µM

Given the molecule [2H]C([2H])(Oc1nc(N2C[C@H]3CC[C@@H](C2)N3)c2cnc(-c3cccc4ccc(F)c(C#C)c34)c(F)c2n1)C12CCCN1CC(=C(F)F)C2 (some centres not stated) , write its reported IC50.
1.41 µM

From: ChEMBL document CHEMBL5390265
